target: PD-1/PD-L1 (Homo sapiens); construct: purchased Cisbio 63ADK000CPDPEB; test: PD-1/PD-L1 binding assay (HTRF, PPI-HTRF); conditions: HTRF PD1/PD-L1 binding assay kit; 10 nM Tag1-PD-L1; 25° C.
Sequence (Q9NZQ7 19-238 limits assumed): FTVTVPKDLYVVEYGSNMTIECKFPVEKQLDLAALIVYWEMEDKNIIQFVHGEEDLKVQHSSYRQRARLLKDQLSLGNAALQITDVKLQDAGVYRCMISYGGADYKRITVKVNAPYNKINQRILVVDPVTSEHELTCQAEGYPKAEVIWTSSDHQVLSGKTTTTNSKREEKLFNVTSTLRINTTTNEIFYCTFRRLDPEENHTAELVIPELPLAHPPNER
ASSAY ENDPOINT: IC50 (nM)

COc1cc(/C=C/c2cccc(-c3cccc(-c4nc5cc(CN6CC[C@@H](C(=O)O)C6)cc(C#N)c5o4)c3C)c2Cl)c(C(F)(F)F)cc1CN1CC[C@@H](O)C1: 1

(I) COc1cc(/C=C/c2cccc(-c3cccc(NC(=O)c4ccc(CN5CC[C@@H](O)C5)cn4)c3C)c2C)c(C(F)(F)F)cc1CN1CCC(C)(C(=O)O)C1 (stereo partly drawn)
(II) COc1cc(/C=C/c2nccc(-c3cccc(NC(=O)c4ccc(CN5CC[C@@H](O)C5)cn4)c3C)c2C#N)cc(OC)c1CN1CCCC[C@H]1C(=O)O
-- ask Between these two entries, I and II , state which has the higher IC50. Answer by stating the label of the chosen item.
-- reply II
